Quick list: Ratio per entry.
Tested on: Escherichia coli
Test: Ratio of MBC to MIC for Escherichia coli CIP 53154
Format: functional
REPORTED_ENDPOINT: Ratio

- Cc1cc(=O)n(Cc2cn(Cc3ccc(O)c(C=O)c3)nn2)c2ccc(F)cc12: 1
- Cc1cc(=O)n(Cc2cn(Cc3ccc(O)c(C=O)c3)nn2)c2ccc(Br)cc12: 2
- CCOP(=O)(OCC)C(Nc1ccccc1Cl)c1cc(Cn2cc(Cn3c(=O)cc(C)c4cc(F)ccc43)nn2)ccc1O (stereo not drawn): 2

* * *

Assay: Cytotoxicity against human Huh-7 cells
Type: toxicity, cell-based
Quick list: CC50 per entry.
REPORTED_ENDPOINT: CC50 (µM)

- Cc1cc(=O)n(Cc2cn(Cc3ccc(O)c(C=O)c3)nn2)c2ccc(Br)cc12: 29.6
- CCOP(=O)(OCC)C(Nc1ccccc1)c1cc(Cn2cc(Cn3c(=O)cc(C)c4ccccc43)nn2)ccc1O (stereo not drawn): 51.1
- C[C@@]1(O)[C@H](O)[C@@H](CO)O[C@H]1n1ccc2c(N)ncnc21: 50
- CCOP(=O)(OCC)C(Nc1ccccc1OC)c1cc(Cn2cc(Cn3c(=O)cc(C)c4cc(F)ccc43)nn2)ccc1O (stereo not drawn): 88
- CCOP(=O)(OCC)C(Nc1ccc(F)cc1)c1cc(Cn2cc(Cn3c(=O)cc(C)c4ccccc43)nn2)ccc1O (stereo not drawn): 31.4
- CCOP(=O)(OCC)C(Nc1ccccc1Cl)c1cc(Cn2cc(Cn3c(=O)cc(C)c4cc(F)ccc43)nn2)ccc1O (stereo not drawn): 31
- Cc1cc(=O)n(Cc2cn(Cc3ccc(O)c(C=O)c3)nn2)c2ccccc12: 37.5
- CCOP(=O)(OCC)C(Nc1ccccc1Br)c1cc(Cn2cc(Cn3c(=O)cc(C)c4cc(Br)ccc43)nn2)ccc1O (stereo not drawn): 27.9
- CCOP(=O)(OCC)C(Nc1ccc(F)cc1)c1cc(Cn2cc(Cn3c(=O)cc(C)c4cc(Br)ccc43)nn2)ccc1O (stereo not drawn): 22.2
- CCOP(=O)(OCC)C(Nc1ccc(I)cc1)c1cc(Cn2cc(Cn3c(=O)cc(C)c4cc(F)ccc43)nn2)ccc1O (stereo not drawn): 12.1
- CCOP(=O)(OCC)C(Nc1ccccc1Cl)c1cc(Cn2cc(Cn3c(=O)cc(C)c4ccccc43)nn2)ccc1O (stereo not drawn): 30.5
- CCOP(=O)(OCC)C(Nc1ccc(F)cc1)c1cc(Cn2cc(Cn3c(=O)cc(C)c4cc(F)ccc43)nn2)ccc1O (stereo not drawn): 29.3
- CCOP(=O)(OCC)C(Nc1ccccc1OC)c1cc(Cn2cc(Cn3c(=O)cc(C)c4cc(Br)ccc43)nn2)ccc1O (stereo not drawn): 51.2
- CCOP(=O)(OCC)C(Nc1ccc(C)cc1)c1cc(Cn2cc(Cn3c(=O)cc(C)c4cc(Br)ccc43)nn2)ccc1O (stereo not drawn): 20
- CCOP(=O)(OCC)C(Nc1ccccc1Br)c1cc(Cn2cc(Cn3c(=O)cc(C)c4ccccc43)nn2)ccc1O (stereo not drawn): 30.1
- CCOP(=O)(OCC)C(Nc1ccccc1OC)c1cc(Cn2cc(Cn3c(=O)cc(C)c4ccccc43)nn2)ccc1O (stereo not drawn): 51.8
- CCOP(=O)(OCC)C(Nc1ccccc1Cl)c1cc(Cn2cc(Cn3c(=O)cc(C)c4cc(Br)ccc43)nn2)ccc1O (stereo not drawn): 20
